study system: UniProtKB P43490
Sequence (P43490 whole entry): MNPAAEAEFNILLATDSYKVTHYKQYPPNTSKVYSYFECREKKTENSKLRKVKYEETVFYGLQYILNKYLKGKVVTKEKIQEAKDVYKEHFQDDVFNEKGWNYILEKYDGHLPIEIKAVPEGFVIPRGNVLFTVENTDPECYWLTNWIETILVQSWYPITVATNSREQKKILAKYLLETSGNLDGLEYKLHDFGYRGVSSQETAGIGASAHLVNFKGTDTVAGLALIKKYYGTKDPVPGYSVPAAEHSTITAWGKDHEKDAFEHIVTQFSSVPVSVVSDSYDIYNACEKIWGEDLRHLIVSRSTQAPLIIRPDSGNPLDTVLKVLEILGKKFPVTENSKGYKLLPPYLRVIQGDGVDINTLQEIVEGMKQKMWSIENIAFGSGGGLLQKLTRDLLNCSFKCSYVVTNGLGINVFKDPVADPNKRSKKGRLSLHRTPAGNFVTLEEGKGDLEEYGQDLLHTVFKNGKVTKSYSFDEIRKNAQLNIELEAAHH
Please note: IC50 exactly at 40 nM is not satisfied. Only values below 40 nM get satisfied.

smiles input	study system	classification
O=C(NCc1ccc(S(=O)(=O)c2ccccc2)cc1)c1ccc2cnccc2c1	UniProtKB P43490	not satisfied
O=C(NCc1ccc(S(=O)(=O)N2CCCCC2)cc1)c1ccc2ncsc2c1	UniProtKB P43490	satisfied
O=C(NCc1ccc(S(=O)(=O)c2ccccc2)cc1)c1ccc2ncncc2c1	UniProtKB P43490	not satisfied
O=C(NCc1ccc(S(=O)(=O)c2ccc(C(F)(F)F)cc2)cc1)c1cc2cnccc2[nH]1	UniProtKB P43490	satisfied
O=C(NCc1ccc(S(=O)(=O)c2ccc(N3CCOCC3)nc2)cc1)c1cc2cnccc2[nH]1	UniProtKB P43490	satisfied
O=C(NCc1ccc(S(=O)(=O)N2CCCCC2)cc1)c1ccn2cncc2c1	UniProtKB P43490	not satisfied
O=C(NCc1ccc(S(=O)(=O)c2ccccc2)cc1)c1ccc2ccncc2c1	UniProtKB P43490	not satisfied
O=C(NCc1ccc(S(=O)(=O)N2CCCCC2)cc1)c1cc2ccncc2[nH]1	UniProtKB P43490	not satisfied
O=C(NCc1ccc(S(=O)(=O)c2cccc(C(F)(F)F)c2)cc1)c1cc2cnccc2[nH]1	UniProtKB P43490	satisfied
O=C(NCc1ccc(S(=O)(=O)c2ccccc2)cc1)c1cc2ccncc2s1	UniProtKB P43490	satisfied
O=C(NCc1ccc(S(=O)(=O)N2CCCCC2)cc1)c1cc2cnccc2o1	UniProtKB P43490	not satisfied
O=C(NCc1ccc(S(=O)(=O)N2CCCCC2)cc1)c1ccn2ccnc2c1	UniProtKB P43490	not satisfied
O=C(NCc1ccc(S(=O)(=O)c2ccc(N3CCOCC3)nc2)cc1)c1cc2ccncc2o1	UniProtKB P43490	satisfied
